# credit: ChEMBL document CHEMBL2311382

Assay: Therapeutic index, ratio of TD50 for human foreskin fibroblast cells to ID 50 for Toxoplasma gondii
Type: cell-based
Details: read-out: TI
selectivity ratio reference

Solved cases (3 shown):
1. CON=C1c2cc(Br)ccc2-n2c1nc1ccccc1c2=O (single isomer, unassigned) : > 1200
2. CC1(O)c2ccccc2-n2c1nc1ccccc1c2=O (stereo not drawn) : > 11
3. CC(=O)O/N=C1\c2ccccc2-n2c1nc1ccccc1c2=O : 32

Ask | Look up selectivity ratio: CC(=O)O[C@@H]1c2ccccc2N2C(=O)c3ccccc3N[C@@H]12
Reply | 40

Ask | Look up selectivity ratio: COc1cc(Cc2cnc(N)nc2N)cc(OC)c1OC
Reply | > 3

Ask | Look up selectivity ratio: O=C1c2cc(Br)ccc2-n2c1nc1ccccc1c2=O
Reply | > 33000

Ask | Look up selectivity ratio: O=C(N/N=C1/c2ccccc2-n2c1nc1ccccc1c2=O)C(F)(F)F
Reply | > 63

Ask | Look up selectivity ratio: N/N=C1/c2ccccc2-n2c1nc1ccccc1c2=O
Reply | 16
